System: male db/db mice
assay remarks: Blood glucose, triglyceride and non-esterified fatty acid reduction in db/db mice
Assay type: in vivo
measurement conditions: Mus musculus, 216 h, oral once a day, dose 3 mg/kg, day 9 after administration, read-out: Blood sugar reduction (%)
Assign class by inhibition in vivo at 3 mg/kg: not lower than 50% means TRUE; lower than 50% means FALSE.

Solved entries:
Enquiry: Quick check, inhibition in vivo at 3 mg/kg >= 50%? CC(C)O[C@@H](Cc1cccc(OC[C@H](O)COc2ccc(Cl)cc2)c1)C(=O)O
Return: FALSE

Enquiry: Quick check, inhibition in vivo at 3 mg/kg >= 50%? CC(C)O[C@@H](Cc1cccc(CNC(=O)OCc2cccc(OC(F)(F)F)c2)c1)C(=O)O
Return: FALSE

Enquiry: Quick check, inhibition in vivo at 3 mg/kg >= 50%? CC(C)O[C@@H](Cc1cccc(OC[C@H](F)COc2ccc(Cl)cc2C#N)c1)C(=O)O
Return: FALSE

---
Enquiry: Quick check, inhibition in vivo at 3 mg/kg >= 50%? CC(C)O[C@@H](Cc1cccc(OC[C@@H](F)COc2ccc(Cl)cc2Cl)c1)C(=O)O
Return: TRUE

Enquiry: Quick check, inhibition in vivo at 3 mg/kg >= 50%? CC(C)O[C@@H](Cc1cccc(CNC(=O)OCc2ccc(OC(F)(F)F)cc2)c1)C(=O)O
Return: TRUE
